Cited source: patent US20060264369

# Target of assay: von Willebrand factor full length (Homo sapiens, UniProt P04275 SEQ:764-2813)
# Assay notes: filter; 39% bound at 100 nM vWF
# Experimental parameters: tags: Calbiochem 681300; label: 5'-32P
# Description: For KD determination, chemically synthesized aptamers were purified using denaturing polyacrylamide gel electrophoresis, 5′end labeled with γ-³²P ATP and were tested for direct binding to full length human vWF (Calbiochem Cat.# 681300, La Jolla, Calif.). […] KD values were calculated by fitting the equation y=(max/(1+K/protein))+yint using KaleidaGraph (KaleidaGraph v. 3.51, Synergy Software).
Recorded endpoint: pKd
Give bare numbers, as −log10 of the molar value.

Give the reported pKd for this binder. GGCGTGCAGUGCCTTCGGCCGTGCGGTGCCTCCGUCACGCC (mixed, 2'-OMe at 9, 10, 21, 23, 34-36, 3'-idT) [ARC1339]
8.62
